assay: physchem; conditions: alcohol/water solution with mannitol, 5 °C, aqueous with cosolvent or surfactant or cyclodextrin
readout type: solubility at 0 h

given_smiles=Cl.Cn1c(CCCC(=O)O)nc2cc(N(CCCl)CCCl)ccc21 data_value="> 15 mg/mL"

----------
assay: physchem; conditions: alcohol/water solution with mannitol, 5 °C, aqueous with cosolvent or surfactant or cyclodextrin, thermodynamic from solid
readout type: solubility at 6 h

compound="Cl.Cn1c(CCCC(=O)O)nc2cc(N(CCCl)CCCl)ccc21 [bendamustine]" data_value="> 15 mg/mL"

----------
assay: physchem; details: water with mannitol 25.5 mg/mL, 5 °C, water, thermodynamic from solid
readout type: solubility at 3 h

given_smiles=Cl.Cn1c(CCCC(=O)O)nc2cc(N(CCCl)CCCl)ccc21 data_value="> 15 mg/mL"
